System Tested: human 11β-HSD1 (Homo sapiens, UniProt P28845)
Construct: expressed in transfected cells
Sequence (P28845 whole entry): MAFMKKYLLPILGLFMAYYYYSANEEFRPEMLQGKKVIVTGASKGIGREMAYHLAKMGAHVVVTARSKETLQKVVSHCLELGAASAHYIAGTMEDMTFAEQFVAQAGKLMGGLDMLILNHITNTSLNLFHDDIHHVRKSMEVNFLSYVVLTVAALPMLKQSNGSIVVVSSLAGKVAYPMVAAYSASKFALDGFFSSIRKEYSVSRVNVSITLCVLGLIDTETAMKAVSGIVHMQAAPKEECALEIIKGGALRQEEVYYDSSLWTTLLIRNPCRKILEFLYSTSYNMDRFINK
Test: 11β-HSD1 reductase activity (cortisone to cortisol) in lysates of stably transfected HEK-293 cells
Type: biochemical
Details: IC 50 11β-HSD1, determination 1
Attribute Measured: IC50 (nM)

CC(=O)OC1CC[C@]2(C)C3=C(C(=O)C[C@H]2C1(C)C)[C@]1(C)CCC(C(C)CCC(=O)O)[C@@]1(C)CC3=O (stereo partly shown) [BNW16] = 149

* * *

System Tested: human 11β-HSD1 (Homo sapiens, UniProt P28845)
Construct: expressed in transfected cells
Test: 11β-HSD1 reductase activity (cortisone to cortisol) in lysates of stably transfected HEK-293 cells
Type: biochemical
Details: IC 50 11β-HSD1, determination 2
Attribute Measured: IC50 (nM)

CC(=O)OC1CC[C@]2(C)C3=C(C(=O)C[C@H]2C1(C)C)[C@]1(C)CCC(C(C)CCC(=O)O)[C@@]1(C)CC3=O (stereo partly shown) = 168

* * *

System Tested: human 11β-HSD2 (Homo sapiens)
Construct: expressed in transfected cells
Sequence (P80365 1-405): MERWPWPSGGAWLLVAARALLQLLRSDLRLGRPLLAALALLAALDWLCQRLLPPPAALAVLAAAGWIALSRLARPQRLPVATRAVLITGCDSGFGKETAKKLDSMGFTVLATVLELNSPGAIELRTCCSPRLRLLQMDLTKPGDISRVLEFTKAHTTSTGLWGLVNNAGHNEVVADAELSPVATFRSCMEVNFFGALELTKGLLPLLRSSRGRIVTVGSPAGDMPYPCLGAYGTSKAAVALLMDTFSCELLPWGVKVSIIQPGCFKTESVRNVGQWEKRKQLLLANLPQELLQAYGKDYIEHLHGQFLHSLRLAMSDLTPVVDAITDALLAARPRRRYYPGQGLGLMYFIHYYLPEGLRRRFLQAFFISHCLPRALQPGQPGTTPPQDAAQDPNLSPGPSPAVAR
Test: 11β-HSD2 oxidase activity (cortisol to cortisone) in lysates of stably transfected HEK-293 cells
Format: biochemical
Details: read-out: IC 50 11β-HSD2, Mean
pIC50: −log10 of the molar value.
Attribute Measured: pIC50

CC1(C)[C@@H](N)CC[C@]2(C)[C@H]3C(=O)C=C4[C@@H]5C[C@@](C)(C(=O)O)CC[C@]5(C)CC[C@@]4(C)[C@]3(C)CC[C@@H]12 = 7.22

* * *

System Tested: human 11β-HSD1 (Homo sapiens, UniProt P28845)
Construct: expressed in transfected cells
Test: 11β-HSD1 reductase activity (cortisone to cortisol) in lysates of stably transfected HEK-293 cells
Type: biochemical
Details: cell lysates, 7 inhibitor concentrations at factor 2 intervals, experiment 1; read-out: IC 50 11β-HSD1, determination 1
pIC50: −log10 of the molar value.
Attribute Measured: pIC50

COC(=O)[C@@]1(C)CC[C@]2(C)CC[C@]3(C)C(=CC(=O)[C@@H]4[C@@]5(C)CC[C@H](Oc6ccccc6C(=O)O)C(C)(C)[C@@H]5CC[C@]43C)[C@@H]2C1 [BNW13] = 6.18
COc1ccc(CCNC(=O)C23CCC(C)(C(=O)C2=O)C3(C)C)cc1OC (centres unmarked) [BNW7] = 5.71

* * *

System Tested: human 11β-HSD1 (Homo sapiens, UniProt P28845)
Construct: expressed in transfected cells
Test: 11β-HSD1 reductase activity (cortisone to cortisol) in lysates of stably transfected HEK-293 cells
Format: biochemical
Details: 20 μM compound, 100 nM cortisone, HEK-293 cell lysates; read-out: 11β-HSD1 % of control
# if measured remaining activity at 20 µM < 70%: Yes  # else: No

CCOc1ccc(C2c3cc(OCC)c(OCC)cc3CC(=O)N2c2ccc(C(=O)O)cc2)cc1OCC (centres unmarked) [BNW17] = No
COCCN1C(=O)C(O)=C(C(=O)c2ccc(OC)c(C)c2)C1c1ccc(C)cc1 (centres unmarked) [BNW20] = Yes
COc1ccc(OC)c(C2C(C(=O)c3ccc(Br)cc3)=C(O)C(=O)N2CCCn2ccnc2)c1 (centres unmarked) [BNW2] = No
CCCCOc1ccc(C(=O)C2=C(O)C(=O)N(CCOC)C2c2cccnc2)c(C)c1 (centres unmarked) [BNW3] = Yes
CCN(CC(O)COc1cc(C)c(Cl)c(C)c1)S(=O)(=O)O (centres unmarked) [BNW1] = No
COc1ccc(C(=O)NCc2cccc(Cl)c2Cl)c(C(F)(F)F)c1 [BNW6] = No
CCOc1ccc(C2C(C(=O)c3ccc(Cl)cc3)=C(O)C(=O)N2CCCn2ccnc2)cc1OCC (centres unmarked) [BNW22] = Yes
CCC(Sc1nnc(-c2ccc(OC)c(OC)c2)c(-c2ccc(OC)c(OC)c2)n1)C(=O)N(CC)CC (centres unmarked) [BNW30] = Yes
CC1(C)[C@@H](OCO)CC[C@]2(C)[C@H]3C(=O)C=C4C5=C[C@@](C)(C(=O)O)CC[C@]5(C)CC[C@@]4(C)[C@]3(C)CC[C@@H]12 [BNW15] = Yes
COc1ccc(C(=O)C2=C(O)C(=O)N(CCCn3ccnc3)C2c2ccccc2)cc1Cl (centres unmarked) [BNW21] = Yes
CCN(CC)S(=O)(=O)c1ccc(Cl)c(C(=O)Nc2nc3ccc(S(C)(=O)=O)cc3s2)c1 [BNW12] = No
COc1cc(/C=N/NC(=O)CSc2nc3ccccc3n2Cc2ccc(C)cc2)cc(OC)c1OC(C)=O [BNW28] = No
COc1ccc(CCNC(=O)C23CCC(C)(C(=O)C2=O)C3(C)C)cc1OC (centres unmarked) [BNW7] = Yes
COC(=O)[C@@]1(C)CC[C@]2(C)CC[C@]3(C)C(=CC(=O)[C@@H]4[C@@]5(C)CC[C@H](Oc6ccccc6C(=O)O)C(C)(C)[C@@H]5CC[C@]43C)[C@@H]2C1 [BNW13] = Yes
COc1cc2c(cc1OC)C(COc1ccc([N+](=O)[O-])cc1)N(C(=O)c1ccc(Cl)c([N+](=O)[O-])c1)CC2 (centres unmarked) [BNW27] = No
CSc1nc2cc(C)c(C)cc2n1C1OC(CO)C(O)C1O (centres unmarked) [BNW18] = No
CCN(CC)S(=O)(=O)c1ccc(OC)c(-c2nnc(-c3cc(S(=O)(=O)N(CC)CC)ccc3OC)o2)c1 [BNW29] = No
CC1(C)[C@@H](N)CC[C@]2(C)[C@H]3C(=O)C=C4[C@@H]5C[C@@](C)(C(=O)O)CC[C@]5(C)CC[C@@]4(C)[C@]3(C)CC[C@@H]12 [BNW25] = Yes
CC(=O)OC1CC[C@]2(C)C3=C(C(=O)C[C@H]2C1(C)C)[C@]1(C)CCC(C(C)CCC(=O)O)[C@@]1(C)CC3=O (some centres unmarked) [BNW16] = Yes
NC(=O)c1c(NC(=O)C2CC=CCC2C(=O)O)sc2c1CCCCC2 (centres unmarked) [BNW8] = Yes
COc1ccc(CNC(=O)C2CCC(=O)N2C2CCCC2)cc1OC (centres unmarked) [BNW26] = No
Cc1nn(CC(=O)Nc2sc(C)c(C)c2C(N)=O)c(C)c1[N+](=O)[O-] [BNW4] = No
COCCC1C(=O)C(O)=C(C(=O)c2ccc(OC)c(C)c2)C1c1ccc(Cl)cc1Cl (centres unmarked) [BNW9] = Yes
COc1cccc(/C=N/NC(=O)CSCc2ccccc2C)c1OC [BNW23] = No
